Tested on: U-251
Test: NCI tumour cell line growth inhibition, 48 h
The source made the active and inactive calls. Rule as the data show it: active = GI50 up to about 1.1 µM and inactive = higher.
We begin with a simple list: items and their reported GI50.

Need GI50 of `Nc1ccc(-c2nc3cc(F)ccc3s2)cc1CO` , thanks. 16.4 µM (inactive)

And OC12c3ccccc3C1CCCCC2N1CCCC1 (stereo unspecified) ? > 100 µM (inactive)

And `Nc1ncnc2c1ncn2COC/C=C/I` ? > 100 µM (inactive)

And `Cc1nc2ccccc2c(=O)n1/N=C(\N=N\c1ccc(Cl)cc1)c1ccc(N(C)C)cc1` ? > 10 µM (inactive)

And `O=C(/C=C/c1ccc(Cl)c(Cl)c1)c1ccc(F)cc1` ? 13 µM (inactive)

And `C=CCC1=C(C)C[C@@H]2CCC(=O)C=C12` ? > 100 µM (inactive)
